Assay system: human TRPC6 (Homo sapiens)
Sequence (Q9Y210 whole entry): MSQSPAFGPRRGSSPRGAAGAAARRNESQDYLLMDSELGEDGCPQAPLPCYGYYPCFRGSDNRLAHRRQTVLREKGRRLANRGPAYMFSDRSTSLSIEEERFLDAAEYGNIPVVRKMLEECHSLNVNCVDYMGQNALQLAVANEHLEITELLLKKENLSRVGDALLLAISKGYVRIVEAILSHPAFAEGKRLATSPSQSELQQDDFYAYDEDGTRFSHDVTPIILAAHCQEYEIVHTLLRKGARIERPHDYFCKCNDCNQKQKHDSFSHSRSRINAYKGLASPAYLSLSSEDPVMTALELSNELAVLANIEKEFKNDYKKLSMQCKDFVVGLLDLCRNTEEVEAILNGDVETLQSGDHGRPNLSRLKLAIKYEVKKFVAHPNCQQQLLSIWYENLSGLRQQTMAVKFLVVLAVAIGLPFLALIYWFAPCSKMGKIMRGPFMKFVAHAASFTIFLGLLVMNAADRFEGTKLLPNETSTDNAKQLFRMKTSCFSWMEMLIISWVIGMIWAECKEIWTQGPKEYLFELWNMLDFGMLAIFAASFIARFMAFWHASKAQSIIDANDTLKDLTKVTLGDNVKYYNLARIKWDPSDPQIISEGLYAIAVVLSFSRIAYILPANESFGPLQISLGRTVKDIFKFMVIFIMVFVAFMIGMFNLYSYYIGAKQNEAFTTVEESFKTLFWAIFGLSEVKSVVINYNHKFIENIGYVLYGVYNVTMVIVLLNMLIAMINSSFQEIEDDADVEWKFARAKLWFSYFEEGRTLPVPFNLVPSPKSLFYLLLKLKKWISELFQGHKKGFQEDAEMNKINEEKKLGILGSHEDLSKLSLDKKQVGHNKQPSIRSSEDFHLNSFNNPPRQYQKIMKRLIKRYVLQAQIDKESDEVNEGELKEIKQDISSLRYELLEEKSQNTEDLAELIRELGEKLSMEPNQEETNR
Measurement protocol: TRPC6 Calcium Flux Assay
Measurement conditions: inhibition of OAG-triggered calcium influx in HEK293 cells stably transfected with human TRPC6; FLIPR; 25 min compound preincubation; 50 uM OAG; read-out: hTRPC6 Potency
pIC50: −log10 of the molar value.
Quantity kind: pIC50

[[record]]
compound = "N[C@@H]1CN(c2nc3ccc(F)cc3n2Cc2ccc(Cl)cn2)CCC1(F)F (single isomer, unassigned)"
quantity_kind = "pIC50"
assay_value = 8.60

[[record]]
compound = "COc1cnc(Cn2c(N3CC[C@@H](F)[C@H](N)C3)nc3cc(F)c(F)cc32)nc1"
quantity_kind = "pIC50"
assay_value = 8.92


1 = N[C@@H]1CN(c2nc3ccc(F)cc3n2Cc2ccc(F)cn2)CCC1(F)F (single isomer, unassigned)
2 = N[C@@H]1CN(c2nc3cc(F)ccc3n2Cc2ccc(F)cn2)CC[C@H]1F (single isomer, unassigned)
3 = Cc1ccc(Cn2c(N3CC[C@@H](F)[C@H](N)C3)nc3cc(F)c(F)cc32)nc1
Problem: Exam item: list the entries in increasing order of pIC50. Form entry: labels listed in requested order.
Result: 1, 2, 3

* * *

Assay system: UniProtKB Q9Y210
Measurement protocol: TRPC6 Calcium Flux Assay
Measurement conditions: inhibition of OAG-triggered calcium influx in HEK293 cells stably transfected with human TRPC6; FLIPR; 25 min compound preincubation; 50 uM OAG; read-out: hTRPC6 Potency
pIC50: −log10 of the molar value.
Quantity kind: pIC50

Below: 4 molecules and their reported pIC50.
[[record]]
molecule = "N[C@@H]1CN(c2nc3cc(F)ccc3n2Cc2ccc(Cl)cn2)CCC1(F)F (single isomer, unassigned) [Example 5]"
quantity_kind = "pIC50"
assay_value = 9.52

[[record]]
molecule = "N[C@@H]1CN(c2nc3cc(F)cc(F)c3n2Cc2ccc(F)cn2)CCC1(F)F (single isomer, unassigned) [Example 2]"
quantity_kind = "pIC50"
assay_value = 8.66

[[record]]
molecule = "COc1cnc(Cn2c(N3CC[C@@H](F)[C@H](N)C3)nc3c(F)cc(F)cc32)nc1 (single isomer, unassigned) [Example 9]"
quantity_kind = "pIC50"
assay_value = 9.30

[[record]]
molecule = "N[C@@H]1CN(c2nc3ccc(F)cc3n2Cc2ncc(Cl)cn2)CCC1(F)F (single isomer, unassigned) [Example 6]"
quantity_kind = "pIC50"
assay_value = 9.00


P = N#Cc1cc(F)cc2c1nc(N1CC[C@@H](F)[C@H](N)C1)n2Cc1ccc(F)cn1 (single isomer, unassigned) [Example 15]
Q = N[C@@H]1CN(c2nc3ccc(F)cc3n2Cc2ccc(F)cn2)CC[C@H]1F (single isomer, unassigned) [Example 4]
Problem: Among P and Q , which shows a numerically higher pIC50 result? Choose, then provide that item's label.
Result: Q
(Q: 9.40, P: 9.00)

* * *

Assay system: UniProt:Q9Y210
Measurement protocol: TRPC6 Calcium Flux Assay
Measurement conditions: inhibition of OAG-triggered calcium influx in HEK293 cells stably transfected with human TRPC6; FLIPR; 25 min compound preincubation; 50 uM OAG; read-out: hTRPC6 Potency
Quantity kind: IC50 (nM)

Below: 5 molecules and their reported IC50.
[[record]]
molecule = "N[C@@H]1CN(c2nc3cc(F)ccc3n2Cc2ncc(F)cn2)CC[C@H]1F (single isomer, unassigned)"
assay_value = 0.4

[[record]]
molecule = "N[C@@H]1CN(c2nc3cc(F)c(F)cc3n2Cc2ccc(Cl)cn2)CCC1(F)F"
assay_value = 0.6

[[record]]
molecule = "N#Cc1ccc2nc(N3CCC(F)(F)[C@H](N)C3)n(Cc3ccc(Cl)cn3)c2c1 (single isomer, unassigned)"
assay_value = 1.3

[[record]]
molecule = "N[C@@H]1CN(c2nc3c(F)cc(F)cc3n2Cc2ncc(Cl)cn2)CCC1(F)F (single isomer, unassigned)"
assay_value = 1.2

[[record]]
molecule = "N[C@@H]1CN(c2nc3cc(F)c(F)cc3n2Cc2ncc(Cl)cn2)CC[C@H]1F"
assay_value = 1.2


I = N[C@@H]1CN(c2nc3ccc(F)cc3n2Cc2ccc(Cl)cn2)CC[C@H]1F (single isomer, unassigned)
II = N[C@@H]1CN(c2nc3cc(F)c(F)cc3n2Cc2ncc(Cl)cn2)CCC1(F)F
III = COc1cc(F)c2nc(N3CC[C@@H](F)[C@H](N)C3)n(Cc3ncc(Cl)cn3)c2c1 (single isomer, unassigned)
IV = N[C@@H]1CN(c2nc3ccc(F)cc3n2Cc2ncc(F)cn2)CC[C@H]1F (single isomer, unassigned)
V = N#Cc1cccc(Cn2c(N3CC[C@@H](F)[C@H](N)C3)nc3cc(F)c(F)cc32)n1
Problem: Reorder: IC50, max to min. Form entry: labels listed in requested order.
Result: V, I, II, III, IV
(V: 1.8 nM, I: 1 nM, II: 0.6 nM, III: 0.4 nM, IV: 0.2 nM)

Data origin: patent US12492185B2
